biological target: recombinant human NF-kappaB-inducing kinase (NIK/MAP3K14) (Homo sapiens); test: Biological Assay B: inhibition of auto-phosphorylation of recombinant human NIK/MAP3K14 (AlphaScreen), performed at 2 locations; assay type: biochemical; settings: location 1; NIK auto-phosphorylation, AlphaScreen; averaged values; read-out: Assay B location 1 IC50
Sequence (Q99558 whole entry): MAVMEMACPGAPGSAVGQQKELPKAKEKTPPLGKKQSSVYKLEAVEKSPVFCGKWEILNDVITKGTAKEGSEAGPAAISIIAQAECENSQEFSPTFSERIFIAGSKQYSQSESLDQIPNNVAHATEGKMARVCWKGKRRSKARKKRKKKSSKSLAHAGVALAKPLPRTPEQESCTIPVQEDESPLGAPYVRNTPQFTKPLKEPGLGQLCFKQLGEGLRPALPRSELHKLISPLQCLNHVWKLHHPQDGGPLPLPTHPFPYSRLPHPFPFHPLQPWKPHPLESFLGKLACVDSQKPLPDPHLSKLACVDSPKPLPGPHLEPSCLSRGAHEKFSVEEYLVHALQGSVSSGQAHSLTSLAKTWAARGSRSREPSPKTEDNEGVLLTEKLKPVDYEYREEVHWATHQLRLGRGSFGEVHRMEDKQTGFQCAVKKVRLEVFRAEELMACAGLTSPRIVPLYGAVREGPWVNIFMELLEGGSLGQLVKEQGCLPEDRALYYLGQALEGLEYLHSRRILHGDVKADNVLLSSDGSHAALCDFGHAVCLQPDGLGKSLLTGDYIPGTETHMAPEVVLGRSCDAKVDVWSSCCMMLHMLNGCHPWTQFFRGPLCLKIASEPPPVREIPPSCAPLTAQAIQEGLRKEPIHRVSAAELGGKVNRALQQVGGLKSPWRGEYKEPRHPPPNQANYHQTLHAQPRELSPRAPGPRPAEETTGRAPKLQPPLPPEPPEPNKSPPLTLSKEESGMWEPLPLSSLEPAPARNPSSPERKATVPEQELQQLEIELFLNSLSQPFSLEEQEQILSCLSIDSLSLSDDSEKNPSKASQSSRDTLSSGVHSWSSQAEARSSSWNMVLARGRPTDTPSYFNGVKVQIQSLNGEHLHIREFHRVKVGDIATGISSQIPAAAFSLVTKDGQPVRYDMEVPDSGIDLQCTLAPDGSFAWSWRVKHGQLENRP
QUANTITY: log10 of IC50 (log10 of the value in nM)
All values: base-10 log of IC50 in nM.

Inquiry: Return reported log10 of IC50; argument: COCCOc1ccc(Cl)cc1Nc1nccc(-c2cnc3c(c2)C(C)(CO)CN3)n1 (stereo not drawn)
Reply text: 1.39

Inquiry: Return reported log10 of IC50; argument: COc1cc(S(C)(=O)=O)c(F)cc1Nc1nccc(-c2cnc3c(c2)C(C)(C)CN3)n1
Reply text: 0.90

Inquiry: Return reported log10 of IC50; argument: COc1cc(N2CC3(CCOCC3)C2)c(Cl)cc1Nc1ncc(Cl)c(-c2cnc3c(c2)C(C)(CO)CN3)n1 (single isomer, unassigned) [Compound 347]
Reply text: 2.16

Inquiry: Return reported log10 of IC50; argument: COc1cc(C(=O)NC2CCOCC2)ccc1Nc1ncc(F)c(-c2cnc3c(c2)C(C)(CO)CN3)n1 (single isomer, unassigned) [Compound 349]
Reply text: 0.56

Inquiry: Return reported log10 of IC50; argument: COc1cc(N2CC3(CCOCC3)C2)c(Cl)cc1Nc1ncc(F)c(-c2cnc3c(c2)C(C)(CO)CN3)n1 (stereo not drawn) [Compound 345]
Reply text: 1.28

Inquiry: Return reported log10 of IC50; argument: COc1cc(N2CC3(CCOCC3)C2)c(Cl)cc1Nc1ncc(Cl)c(-c2cnc3c(c2)C(C)(CO)CN3)n1 (single isomer, unassigned) [Compound 348]
Reply text: 1.17
